test system: MOLT-4 leukemia; test: NCI tumour cell line growth inhibition, 48 h
Where a SMILES comes first, the peptide text is derived from it. [ ]: non-standard residue; d: D form. The star is where a group is joined. ξ: configuration not given here. ξD = NC(CC(=O)O)C(=O)O; Ac3c = NC1(C(=O)O)CC1; Boc = CC(C)(C)OC(=O)*; OtBu = CC(C)(C)O*

COMPOUND	TGI
COC(=O)C1(NC(=O)C(CC(=O)OC(C)(C)C)NC(=O)OC(C)(C)C)CC1 (stereo not drawn) (Boc-[ξD](OtBu)-[Ac3c]-OMe)	> 100 µM
Cc1nn(C(=O)c2ccncc2)c2c1C(c1cccc([N+](=O)[O-])c1)SC(N)=N2 (stereo not drawn)	> 10 µM
COC(=O)/C=C/c1cc(OC)c2oc(-c3ccc(OC)c(OC)c3)c(C(=O)OC)c2c1	> 100 µM
